Test system: K-562 leukemia
procedure-text: NCI-60 one-dose screen, 48 h (100 = growth as untreated, 0 = no growth, -100 = all killed)
assay-conditions: 10 µM unless noted
About 83,000 compounds went through this panel and 20% of them were active in at least one assay; those are over-represented in the sample as a whole.
quantity: growth (%)
Answers are plain numbers, in %.

// known answers, use as guide
smiles_text=O=C(CN1CCN(c2cc(=O)[nH]c3ccc(F)cc23)CC1)N(c1ccccc1)c1ccccc1 subject_of_test="K-562 leukemia" quantity=growth recorded_number=94.9
smiles_text=C=C(C)[C@@H]1CC[C@]2(C(=O)O)CC[C@]3(C)[C@H](CC[C@@H]4[C@@]5(C)C/C(=C/c6ccccn6)C(=O)C(C)(C)[C@@H]5CC[C@]43C)[C@@H]12 subject_of_test="K-562 leukemia" quantity=growth recorded_number=29.3
smiles_text=CCCCCc1ccc(S(=O)(=O)Nc2cc(-c3csc(N)n3)ccc2OC)cc1 subject_of_test="K-562 leukemia" quantity=growth recorded_number=83.9
smiles_text=COc1cc(/C=C2/C(=O)Nc3ccc(Cl)cc32)ccc1OCc1ccc(Cl)cc1 subject_of_test="K-562 leukemia" quantity=growth recorded_number=88.6

Consider the record given below.
For record `O=C(Nc1ccccc1)Nc1nc2ccc([N+](=O)[O-])cc2[nH]1` the listed growth is 43.4
